Measurement notes: Drug repurposing screens with cells derived from glioblastoma tumor samples (AID 1345199); note: % is set by controls: 0 for no effect and ±100 for the full control effect; nearly all actives have a fitted effect of over 40% in size
Experimental conditions: GBM patient neurospheres viability, ATP luminescence, 48 h; at 45.9 µM (top of the series); tumour line D
Records with an inconclusive call do not appear.
Endpoint label: activity, negative = cell killing (%)
Lab book: enter the figure in %, no units written.

Please list activity, negative = cell killing recorded for the compound NCCC(O)(P(=O)(O)O)P(=O)(O)O
-13.5

Continuing:
Please list activity, negative = cell killing recorded for the compound CCCCCCCCCCCCCCCCCC(=O)OCC(O)CO (stereo unspecified)
-15.3

Please list activity, negative = cell killing recorded for the compound C[C@@H]1C[C@H]2[C@@H]3CCC4=CC(=O)C=C[C@]4(C)[C@@]3(F)[C@@H](O)C[C@]2(C)[C@H]1C(=O)CO
-7.25

Please list activity, negative = cell killing recorded for the compound C=C1C[C@H]2[C@@H]3C=C(C)C4=CC(=O)CC[C@]4(C)[C@H]3CC[C@]2(C)[C@@]1(OC(C)=O)C(C)=O
-24.4

====

System: SKOV3
Measurement notes: Primary qHTS to identify gynecologic anti-cancer compounds using libraries of approved drugs and bioactive compounds (AID 1345084); note: % is set by controls: 0 for no effect and ±100 for the full control effect; nearly all actives have a fitted effect of over 55% in size
Experimental conditions: Gynecologic cancer cell panel viability, ATPlite luminescence, 48 h; series mostly up to 57.5 µM
Results filed as inconclusive are left out. Activity calls are given as the source filed them. The call rests on the fitted dose curve; in most records, active means well fitted cell-killing curve with a large enough effect; inconclusive means small, poorly fitted or top-dose-only effect, or effect the other way; inactive means flat fitted curve, though single readings scatter.
Allowed answers: YES = active, NO = inactive

Worked examples follow.
Please indicate how the test categorized CC(=O)OCC(=O)[C@@]1(O)CC[C@H]2[C@@H]3CCC4=CC(=O)C=C[C@]4(C)[C@H]3[C@@H](O)C[C@@]21C .
NO

Please indicate how the test categorized O=S1(=O)c2cccc3cccc(c23)N1CCCN1CCN(c2ccc(F)cc2)CC1 .
NO

Please indicate how the test categorized C[C@H](O)C(=O)Nc1c(I)c(C(=O)NC(CO)CO)c(I)c(C(=O)NC(CO)CO)c1I .
NO

Please indicate how the test categorized O=C(OCCOCCO)c1ccccc1Nc1cccc(C(F)(F)F)c1 .
NO

Please indicate how the test categorized Cc1ccc(O)c2ncccc12 .
NO

Continuing:
Please indicate how the test categorized CC1=C(C(=O)O)N2C(=O)[C@@H](NC(=O)[C@H](N)c3ccc(O)cc3)[C@H]2SC1 .
NO

Please indicate how the test categorized C[C@]12CCC(=O)C=C1[C@@H]1C[C@@H]1[C@H]1[C@@H]3[C@@H]4C[C@@H]4[C@@]4(CCC(=O)O4)[C@@]3(C)CC[C@@H]12 .
NO

Please indicate how the test categorized C[C@@H]1C[C@H]2[C@@H]3C[C@H](F)C4=CC(=O)C(Cl)=C[C@]4(C)[C@@]3(F)[C@@H](O)C[C@]2(C)[C@@]1(O)C(=O)CO .
NO

====

Measurement notes: qHTS profiling for inhibitors of Plasmodium falciparum proliferation (AID 504749);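 note: 0% = DMSO vehicle and full inhibition = artemisinin control; nearly all actives have a fitted effect of over 60% in size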
Experimental conditions: P. falciparum in erythrocytes, SYBR Green DNA, 72 h; at 28.7 µM (top of the series); parasite line A
Records with an inconclusive call do not appear.
Endpoint label: activity, negative = inhibition (%)
Lab book: enter the figure in %, no units written.

Please list activity, negative = inhibition recorded for the compound O=S1(=O)c2cccc3cccc(c23)N1CCCN1CCN(c2ccc(F)cc2)CC1
7.63

Please list activity, negative = inhibition recorded for the compound CCCCN1CCCC1C(=O)Nc1c(C)cc(C)cc1C (centres undefined)
-15.8

Please list activity, negative = inhibition recorded for the compound OC(CCN1CCCCC1)(c1ccccc1)c1ccccc1
0.409

Please list activity, negative = inhibition recorded for the compound CNCCC(Oc1ccccc1C)c1ccccc1 (centres undefined)
4.27

Please list activity, negative = inhibition recorded for the compound COc1cc2c(cc1OC)C(=O)C(CC1CCN(Cc3ccccc3)CC1)C2 (centres undefined)
-29.4

Please list activity, negative = inhibition recorded for the compound Cc1c(C(C)C)c(=O)n(-c2ccccc2)n1C
5.32

Continuing:
Please list activity, negative = inhibition recorded for the compound CC(C)(Oc1ccc(Cl)cc1)C(=O)O
5.47

Please list activity, negative = inhibition recorded for the compound N[C@H](CO)C(=O)O
-0.225

Please list activity, negative = inhibition recorded for the compound CCCCCCCCCCCCCCCCCC(=O)OCC(O)CO (centres undefined)
5.19

Please list activity, negative = inhibition recorded for the compound CCCCC1=NC2(CCCC2)C(=O)N1Cc1ccc(-c2ccccc2-c2nn[nH]n2)cc1
-0.908

Please list activity, negative = inhibition recorded for the compound c1ccc(OCc2ccc(CCCN3CCOCC3)cc2)cc1
3.42
